This section presents molecules with their documented TGI values.
tested on: OVCAR-4 ovarian; assay: NCI tumour cell line growth inhibition, 48 h

INSERT INTO measurements (compound, value_measured) VALUES
  ('Cc1c(CN2CCC(Nc3ncnc4sc(CC(F)(F)F)cc34)CC2)ccc2c1cc(C#N)n2Cc1cn[nH]c1', '22.3 µM'),
  ('CCc1ccc(CCC(=O)Nc2ncc(Cc3ccccc3)s2)o1', '> 100 µM'),
  ('CCOC(=O)[C@@H](C)C[C@H](Cc1ccccc1)NC(=O)c1csc([C@@H](C[C@H](C(C)C)N(C)C(=O)[C@H](CCC(C)C)NC(=O)[C@H]2CCCCN2C)OC(C)=O)n1', '> 33.3 µM');

Request: TGI, test system OVCAR-4 ovarian, entry O=C(NCCCCNCCCNC(=O)C(F)(F)F)C(F)(F)F
Result: > 100 µM

====

system: T-47D breast; assay: NCI tumour cell line growth inhibition, 48 h
quantity_measured: TGI

Recorded TGI, per entry:
INSERT INTO measurements (compound, experimental_target, value_measured) VALUES
  ('COc1cc(-c2cn(-c3ccc(Cl)cc3)c(=O)[nH]2)cc(OC)c1OC', 'T-47D breast', '> 100 µM'),
  ('O=C(CNC(=O)c1cccc2ccccc12)Nc1ccccc1Oc1ccccc1', 'T-47D breast', '> 10 µM');

Request: Recorded TGI of Cc1ccnc2c1c(=O)c1ccccc1n2C , please.
Result: > 100 µM

Request: Same for COc1ccc(S(=O)Cc2cc(OC)ccc2OC)cc1 (stereo unspecified)
Result: > 100 µM

Request: Same for CCC(/C=C/c1ccccc1)=N\NC(=S)N/N=C(/C=C/c1ccccc1)CC
Result: > 100 µM

Request: Same for Cc1ccc2c(=O)[nH]sc2c1
Result: 41.8 µM

Request: Same for NC(=NC1CCCCCC1)c1ccc(N2CCN(c3ccc(C(N)=NC4CCCCCC4)cc3)CC2)cc1
Result: > 50 µM

Request: Same for CC1(C)OC2CN(C(=O)OCc3ccccc3)C(CO)C2O1 (stereo unspecified)
Result: > 100 µM

Request: Same for O=[N+]([O-])C(=C/C1CCCCC1)/C(=C\C1CCCCC1)[N+](=O)[O-]
Result: 38 µM

Request: Same for N#Cc1nc(Cc2ccccc2)oc1N
Result: > 100 µM

Request: Same for c1ccc2[nH]c(-c3ccc(OCCCCCOc4ccc(-c5nc6ccccc6[nH]5)cc4)cc3)nc2c1
Result: 2.13 µM

====

system: NCI-H460 lung; test: NCI tumour cell line growth inhibition, 48 h
quantity_measured: TGI

INSERT INTO assay_data (molecule, experimental_target, value_measured) VALUES
  ('Nc1ccccc1Sc1ccc(Cl)cc1', 'NCI-H460 lung', '68.9 µM'),
  ('O=C(Nc1nccs1)c1cc(C2=CC=CC([N+](=O)[O-])C=C2)nc(=S)[nH]1 (stereo not drawn)', 'NCI-H460 lung', '> 100 µM'),
  ('O=C(COC(=O)c1ccccc1)c1ccc(Br)cc1', 'NCI-H460 lung', '37.2 µM'),
  ('COc1cc(-c2cn(-c3ccc(Cl)cc3)c(=O)[nH]2)cc(OC)c1OC', 'NCI-H460 lung', '> 100 µM'),
  ('Cc1nc(NC(=S)Nc2ccc(F)cc2)sc1C(=O)NNC(=S)Nc1ccc(F)cc1', 'NCI-H460 lung', '16.2 µM');

Now for the molecule whose TGI we want.
Request: Recorded TGI of CN1CCN(Cc2ccc(NC(=O)c3[nH]ncc3Nc3ncnc4c3CCC4)cc2)CC1 , please.
Result: 10.6 µM

====

system: T-47D breast; experiment: NCI tumour cell line growth inhibition, 48 h
quantity_measured: TGI

INSERT INTO results (molecule, quantity_measured, value_measured) VALUES
  ('OCC1CCCCN1Cc1nc2ccc(Cl)cc2[nH]1 (stereo not given)', 'TGI', '> 100 µM'),
  ('O=C(Nc1ccc(Nc2ccncc2)cc1)c1ccc(Nc2ccnc3ccc([N+](=O)[O-])cc23)cc1', 'TGI', '> 100 µM'),
  ('COC(=O)[C@H]1ON2O[C@@H](O[C@H]3CCCC[C@@H]3C(C)(C)c3ccccc3)C[C@@H]3CC[C@H]1[C@@]32C', 'TGI', '> 100 µM'),
  ('CC1(C)N=C(N)N=C(N)N1c1cccc(CCCCc2ccc(S(=O)(=O)F)cc2Cl)c1', 'TGI', '34.5 µM');

Now for the molecule whose TGI we want.
Request: TGI, test system T-47D breast, entry CC(=O)O/C(=C(/C#N)C(=O)O)C1C(C(=O)O)C(c2ccccc2[N+](=O)[O-])C=C(c2ccco2)N1c1ccncc1 (stereo not given)
Result: 18.4 µM

====

tested on: HCT-15 colon; test: NCI tumour cell line growth inhibition, 48 h
quantity_measured: TGI (µM)
Write the answer as a number in µM, unit excluded.

Recorded TGI, per entry:
INSERT INTO measurements (compound, experimental_target, quantity_measured, unit_string, value_measured) VALUES
  ('CC(=O)/C=C/c1c[nH]c(=O)[nH]c1=O', 'HCT-15 colon', 'TGI', 'µM', 523),
  ('CCS(=O)(=O)c1ccc(OC)c(Nc2nccc(N(C)c3ccc4c(C)[nH]nc4c3)n2)c1', 'HCT-15 colon', 'TGI', 'µM', 18.3),
  ('CCOC(=O)[C@@H](C)C[C@H](Cc1ccccc1)NC(=O)c1csc([C@@H](C[C@H](C(C)C)N(C)C(=O)[C@H](CCC(C)C)NC(=O)[C@H]2CCCCN2C)OC(C)=O)n1', 'HCT-15 colon', 'TGI', 'µM', 4.19);

Now for the compound whose TGI we want.
Request: Recorded TGI of Cc1ccc(NC(=S)NNC(=O)c2cc(-c3ccccc3)nc3ccccc23)cc1C , please.
Result: 60.5

====

tested on: RPMI-8226 leukemia; assay: NCI tumour cell line growth inhibition, 48 h; in the data active = GI50 below about 0.43 µM; inactive = the rest
// classify into label 1 = active, label 0 = inactive

Answered cases to consult:
INSERT INTO measurements (molecule, experimental_target, assigned_label) VALUES
  ('Nc1ncc(-c2ccc(C(F)(F)F)cc2)c(NC2CCCCCC2)n1', 'RPMI-8226 leukemia', 'label 0'),
  ('COc1cccc(/C=C/C(=O)c2cc3c(N)c(C(=O)Nc4cccc(Cl)c4C)sc3nc2C)c1', 'RPMI-8226 leukemia', 'label 1'),
  ('Cc1ccc(NS(=O)(=O)c2cc(C)ccc2C)cc1', 'RPMI-8226 leukemia', 'label 0');

Request: Outcome? CCc1ccc(CCC(=O)Nc2ncc(Cc3ccccc3)s2)o1
Result: label 0

Request: Same for CCC(C)/C=C(C)/C=C/C(=O)c1c(O)c(-c2ccc(O)cc2)c[nH]c1=O (stereo not given)
Result: label 0

Request: Same for O=C(CNC(=O)c1cccc2ccccc12)Nc1ccccc1Oc1ccccc1
Result: label 1

Request: Same for Cc1nc(Nc2ccc(F)c(Cl)c2)sc1C(=O)O
Result: label 0

Request: Same for COc1cc2cnc3c(c2cc1OC)Cc1cc2c(cc1-3)OCO2
Result: label 1

Request: Same for O=C(N/N=C/c1cc(Br)cc(Br)c1[O-])c1ccccc1O.O=C(N/N=C/c1cc(Br)cc(Br)c1[O-])c1ccccc1O.[Mn+2]
Result: label 0

Request: Same for CCCCC(=O)[O-].N.N.N.N.N.[Co+3].[O-][Cl+3]([O-])([O-])[O-]
Result: label 0

====

test system: SF-268 CNS; assay: NCI tumour cell line growth inhibition, 48 h
quantity_measured: TGI

Recorded TGI, per entry:
INSERT INTO results (compound, value_measured) VALUES
  ('COc1ccc(S(=O)Cc2cc(OC)ccc2OC)cc1 (stereo unspecified)', '> 100 µM'),
  ('CCOC(=O)C#Cc1ccc(C#CC(=O)OCC)cc1', '> 22.4 µM'),
  ('O=Cc1[nH]c2ccccc2c1Br', '69.8 µM'),
  ('Cc1ccc(N2C(=O)CC(=O)N(NC(=O)C(C)Oc3ccccc3C)C2=S)cc1 (stereo unspecified)', '> 100 µM');

Request: TGI, test system SF-268 CNS, entry CN(C)CCCn1c2c3ccccc3ccc2c2oc(=O)c3ccccc3c21
Result: 13.4 µM

Request: Same for N#CC1(c2nc3ccccc3o2)C(=O)C(=O)N(c2ccc(Cl)c(Cl)c2)C(=O)C1=O
Result: > 100 µM

====

test system: HCT-116 colon; experiment: NCI tumour cell line growth inhibition, 48 h
quantity_measured: TGI (µM)
Write the answer as a number in µM, unit excluded.

Recorded TGI, per entry:
INSERT INTO assay_data (molecule, value_measured) VALUES
  ('Cc1cc2nc3c(C(O)CO)nn(-c4ccccc4)c3nc2cc1C (stereo not given)', 36.6),
  ('CC(=O)O/C(=C(/C#N)C(=O)O)C1C(C(=O)O)C(c2ccccc2[N+](=O)[O-])C=C(c2ccco2)N1c1ccncc1 (stereo not given)', 3.06),
  ('NC(=O)C1=C(c2ccccc2)c2ccccc2C1=O', 34.9),
  ('COc1ccc(/C=C(\C#N)c2cc(OC)c3c(c2)OCO3)cc1', 4.39);

Now for the molecule whose TGI we want.
Request: Recorded TGI of Cc1c(C(=O)CC(=O)C(=O)Nc2cccc(C(F)(F)F)c2)[n+](=O)c2ccccc2n1[O-] , please.
Result: 10.2
